Test system: KRAS G12C mutant NCI-H358 cells
Test: Cell proliferation inhibition experiment, 3D spheroid, CellTiter-Glo, NCI-H358
Format: cell-based, human
Conditions: Homo sapiens, NCI-H358, 120 h, NCI-H358 (KRAS G12C mutant) 3D spheroid, 5 days with compound, CellTiter-Glo; read-out: H358 IC50
Recorded metric: pIC50
Answers are plain numbers, as −log10 of the molar value.

Examples with answers:
Molecule | Reading
C=CC(=O)N1CCN2C(=O)c3c(N4C[C@H](O)[C@H]4C)nc(-c4c(O)cccc4F)c(Cl)c3OC[C@H]2C1 (single isomer, unassigned) [Z102-4] | 7.81
C=CC(=O)N1CCN2C(=O)c3c(N4CCN5C(=O)CC[C@@H]5C4)nc(-c4c(O)cccc4F)c(Cl)c3OC[C@H]2C1 (single isomer, unassigned) [Z317a-2] | 6.97

response.value for C=CC(=O)N1CCN2C(=O)c3c(N4C[C@H](OC)CC4(C)C)nc(-c4c(O)cccc4F)c(Cl)c3OC[C@H]2C1 (single isomer, unassigned) [Z244-2] (field: pIC50) = 9.30

====

System: KRAS G12C mutant NCI-H358 cells
Assay: Cell proliferation inhibition experiment, 3D spheroid, CellTiter-Glo, NCI-H358
Format: cell-based, human
Conditions: Homo sapiens, NCI-H358, 120 h, NCI-H358 (KRAS G12C mutant) 3D spheroid, 5 days with compound, CellTiter-Glo; read-out: H358 IC50
Recorded metric: log10 of IC50 (log10 of the value in nM)
Remember, log10 of IC50, in nM.

Examples with answers:
Compound | Reading
C=CC(=O)N1CCN2C(=O)c3c(N4C(C)COCC4C)nc(-c4c(O)cccc4F)c(Cl)c3OC[C@H]2C1 (stereo partly shown) | 2.11
C=CC(=O)N1CCN2C(=O)c3c(N4Cc5nn(C)cc5[C@@H]4C)nc(-c4c(O)cccc4F)c(Cl)c3OC[C@H]2C1 (single isomer, unassigned) | 1.07
C=CC(=O)N1CCN2C(=O)c3c(N4CC(N5CCN(C)CC5)CC4(C)C)nc(-c4ccccc4F)c(Cl)c3OC[C@H]2C1 (stereo partly shown) | 0.30
C=CC(=O)N1CCN2C(=O)c3c(N4CC(N(C)CCO)CC4(C)C)nc(-c4ccccc4F)c(Cl)c3OC[C@H]2C1 (stereo partly shown) | 0.41
C=CC(=O)N1CCN2C(=O)c3c(N4CCC5CN(C)CC54)nc(-c4c(O)cccc4F)c(Cl)c3OC[C@H]2C1 (stereo partly shown) | 1.67
C=CC(=O)N1CCN2C(=O)c3c(N4CCN(C)C[C@@H]4C)nc(-c4c(N)cccc4F)c(Cl)c3OC[C@H]2C1 | 0.98

Turning to the following compound.
response.value for C=CC(=O)N1CCN2C(=O)c3c(-c4ccnn4C(C)C)nc(-c4c(O)cccc4F)c(Cl)c3OC[C@H]2C1 (field: log10 of IC50) = 2.20

====

Molecular target: KRAS G12C (Homo sapiens, UniProt P01116, G12C)
Sequence (P01116 1-188 isoform P01116-2 G12C): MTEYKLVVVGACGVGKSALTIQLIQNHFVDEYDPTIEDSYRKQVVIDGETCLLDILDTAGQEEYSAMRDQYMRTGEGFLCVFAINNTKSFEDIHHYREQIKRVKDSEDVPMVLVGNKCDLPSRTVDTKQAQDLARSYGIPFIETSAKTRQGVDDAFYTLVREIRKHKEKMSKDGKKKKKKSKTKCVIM
Assay: KRAS G12C NEA-HTRF experiment (SOS1-catalyzed displacement of GDP by GTP)
Recorded metric: pIC50
Answers are plain numbers, as −log10 of the molar value.

Examples with answers:
Molecule | pIC50
C=CC(=O)N1CCN2C(=O)c3c(N4CC(N5CCOCC5)CC4(C)C)nc(-c4ccccc4F)c(Cl)c3OC[C@H]2C1 (single isomer, unassigned) [Z468-1] | 7.46
C=CC(=O)N1CCN2C(=O)c3c(N4C[C@@H](N5CCN(C)CC5)C[C@@H]4C)nc(-c4ccccc4F)c(Cl)c3OC[C@H]2C1 | 7.61

response.value for C=CC(=O)N1CCN2C(=O)c3c(N4CC(N(C)CC(F)(F)F)CC4(C)C)nc(-c4ccccc4F)c(Cl)c3OC[C@H]2C1 (mixture of isomers) [Z491a] (field: pIC50) = 7.82

====

Task for the reader: assign each of the following compounds its reported IC50.
Target: KRAS G12C (Homo sapiens, UniProt P01116, G12C)
Experiment: KRAS G12C NEA-HTRF experiment (SOS1-catalyzed displacement of GDP by GTP)
Give bare numbers, in nM.

Compound | Unit spec | IC50
C=CC(=O)N1CCN2C(=O)c3c(N4CC5CCC(=O)N5C[C@@H]4C)nc(-c4c(O)cccc4F)c(Cl)c3OC[C@H]2C1 (stereo partly shown) [Z330-1] | nM | 226
C=CC(=O)N1CCN2C(=O)c3c(N4CC(O)CC4(C)C)nc(-c4c(O)cccc4F)c(F)c3OC[C@H]2C1 (stereo partly shown) [Z256] | nM | 64
C=CC(=O)N1CCN2C(=O)c3c(N4C[C@@H](N(C)C)CC4(C)C)nc(-c4cccc(F)c4F)c(Cl)c3OC[C@H]2C1 [Z473-1] | nM | 105

response.value for C=CC(=O)N1CCN2C(=O)c3c(N4CCN(C)C[C@@H]4C)nc(-c4ccccc4F)c(Cl)c3OC[C@H]2C1 [Z407-1] (field: IC50) = 262

====

Task for the reader: assign each of the following compounds its reported IC50.
Tested on: KRAS G12C mutant NCI-H358 cells
Test: Cell proliferation inhibition experiment, 3D spheroid, CellTiter-Glo, NCI-H358
Format: cell-based, human
Details: Homo sapiens, NCI-H358, 120 h, NCI-H358 (KRAS G12C mutant) 3D spheroid, 5 days with compound, CellTiter-Glo; read-out: H358 IC50
Entry format: amount then unit.

Compound | IC50
C=CC(=O)N1CCN2C(=O)c3c(N4CC[C@@H](OC)[C@@H]4C)nc(-c4c(O)cccc4F)c(Cl)c3OC[C@H]2C1 [Z338-1] | 6 nM
C=CC(=O)N1CCN2C(=O)c3c(-c4ccncc4)nc(-c4c(O)cccc4F)c(Cl)c3OC[C@H]2C1 [Z54] | 124 nM
C=CC(=O)N1CCN2C(=O)c3c(NC(C)(C)C)nc(-c4ccccc4F)c(Cl)c3OC[C@H]2C1 [Z457] | 62.7 nM
C=CC(=O)N1CCN2C(=O)c3c(N4CCOC[C@H]4C)nc(-c4c(O)cccc4F)c(Cl)c3OC[C@H]2C1 [Z27] | 33 nM
C=CC(=O)N1CCN2C(=O)c3c(N4Cc5cn(C)nc5C4(C)C)nc(-c4c(O)cccc4F)c(Cl)c3OC[C@H]2C1 [Z310] | 10.6 nM
C=CC(=O)N1CCN2C(=O)c3c(N4CCN(C)C[C@@H]4C)nc(-c4c(F)cccc4OC)c(F)c3OC[C@H]2C1 [Z451] | 158 nM

Turning to the following compound.
response.value for C=CC(=O)N1CCN2C(=O)c3c(N4CC(C#N)CC4(C)C)nc(-c4c(O)cccc4F)c(F)c3OC[C@H]2C1 (stereo partly shown) [Z335] (field: IC50) = 11 nM

====

Biological target: KRAS G12C (Homo sapiens, UniProt P01116, G12C)
Assay: KRAS G12C NEA-HTRF experiment (SOS1-catalyzed displacement of GDP by GTP)
Recorded metric: IC50 (µM)
Give bare numbers, in µM.

Examples with answers:
Compound | Unit spec | IC50
C=CC(=O)N1CCN2C(=O)c3c(N4CC(N(C)C5COC5)CC4(C)C)nc(-c4c(O)cccc4F)c(Cl)c3OC[C@H]2C1 (single isomer, unassigned) [Z331-2] | µM | 0.007
C=CC(=O)N1CCN2C(=O)c3c(N4C[C@H](N(C)C)C[C@@H]4C)nc(-c4c(O)cccc4F)c(Cl)c3OC[C@H]2C1 | µM | 0.122

Turning to the following compound.
response.value for C=CC(=O)N1CCN2C(=O)c3c(N4C[C@@H](O)CC4(C)C)nc(-c4c(O)ccc(Cl)c4F)c(F)c3OC[C@H]2C1 (single isomer, unassigned) (field: IC50) = 0.027

====

System: KRAS G12C mutant NCI-H358 cells
Experiment: Cell proliferation inhibition experiment, 3D spheroid, CellTiter-Glo, NCI-H358
Type: cell-based, human
Conditions: Homo sapiens, NCI-H358, 120 h, NCI-H358 (KRAS G12C mutant) 3D spheroid, 5 days with compound, CellTiter-Glo; read-out: H358 IC50
pIC50: −log10 of the molar value.
# cutoff 8 applies to pIC50; >= gives T, < gives F

Compound | Target desc | Classification
C=CC(=O)N1CCN2C(=O)c3c(N4C[C@H](N5CC(F)(F)C5)CC4(C)C)nc(-c4ccccc4F)c(Cl)c3OC[C@H]2C1 (single isomer, unassigned) | KRAS G12C mutant NCI-H358 cells | F
C=CC(=O)N1CCN2C(=O)c3c(N4C[C@@H](OC)C[C@@H]4C)nc(-c4c(O)cccc4F)c(Cl)c3OC[C@H]2C1 [Z260a] | KRAS G12C mutant NCI-H358 cells | T

Ask: Entry C=CC(=O)N1CCN2C(=O)c3c(N4CCN5CCC[C@H]5C4)nc(-c4c(O)cccc4F)c(Cl)c3OC[C@H]2C1 : is its pIC50 no less than 8?
Reply: F
